- Tested on: ivyleaf morningglory (Ipomoea hederacea, IPOHE)
- Run Description: Post-emerge test, greenhouse herbicide activity screening
- Format: in vivo
- Measurement Context: post-emerge, 250 g ai/ha, 14 days after application, rating scale 0-100
Metric: IPOHE phytotoxicity rating
Output: the number by itself.

Consider the worked cases shown below.
INSERT INTO results (compound, metric, recorded_result) VALUES
  ('COc1c(Cl)cc(F)c(-n2c(=O)cc(C(F)(F)F)n(C)c2=O)c1NC(=O)c1ccc2c(C#N)cccc2c1 [2-163]', 'IPOHE phytotoxicity rating', 95),
  ('COc1c(Cl)cc(F)c(-n2c(=O)cc(C(F)(F)F)n(C)c2=O)c1NC(=O)CCc1ccccc1C [2-129]', 'IPOHE phytotoxicity rating', 100),
  ('COc1c(Cl)cc(F)c(-n2c(=O)cc(C(F)(F)F)n(C)c2=O)c1NC(=O)CSc1ccc2ccccc2c1 [2-169]', 'IPOHE phytotoxicity rating', 40),
  ('COc1ccc(-n2c(=O)cc(C(F)(F)F)n(C)c2=O)c(NC(=O)c2ccc3ccccc3c2)c1 [2-143]', 'IPOHE phytotoxicity rating', 100);

// moving on: another record for IPOHE phytotoxicity rating
Q: For COc1c(Cl)cc(F)c(-n2c(=O)cc(C(F)(F)F)n(C)c2=O)c1NC(=O)C(C#N)=Cc1ccccc1 [2-136] , write its IPOHE phytotoxicity rating.
A: 100
